Reference source: paper PMC6859858

Target: CPSF-160;WDR33;CPSF-30;Fip1 (human;human;human;human, UniProt Q10570;Q9C0J8;O95639;Q6UN15 1-1443;1-425;1-269;159-200, |||)
Sequence (Q10570 whole entry, chain 1 of 4): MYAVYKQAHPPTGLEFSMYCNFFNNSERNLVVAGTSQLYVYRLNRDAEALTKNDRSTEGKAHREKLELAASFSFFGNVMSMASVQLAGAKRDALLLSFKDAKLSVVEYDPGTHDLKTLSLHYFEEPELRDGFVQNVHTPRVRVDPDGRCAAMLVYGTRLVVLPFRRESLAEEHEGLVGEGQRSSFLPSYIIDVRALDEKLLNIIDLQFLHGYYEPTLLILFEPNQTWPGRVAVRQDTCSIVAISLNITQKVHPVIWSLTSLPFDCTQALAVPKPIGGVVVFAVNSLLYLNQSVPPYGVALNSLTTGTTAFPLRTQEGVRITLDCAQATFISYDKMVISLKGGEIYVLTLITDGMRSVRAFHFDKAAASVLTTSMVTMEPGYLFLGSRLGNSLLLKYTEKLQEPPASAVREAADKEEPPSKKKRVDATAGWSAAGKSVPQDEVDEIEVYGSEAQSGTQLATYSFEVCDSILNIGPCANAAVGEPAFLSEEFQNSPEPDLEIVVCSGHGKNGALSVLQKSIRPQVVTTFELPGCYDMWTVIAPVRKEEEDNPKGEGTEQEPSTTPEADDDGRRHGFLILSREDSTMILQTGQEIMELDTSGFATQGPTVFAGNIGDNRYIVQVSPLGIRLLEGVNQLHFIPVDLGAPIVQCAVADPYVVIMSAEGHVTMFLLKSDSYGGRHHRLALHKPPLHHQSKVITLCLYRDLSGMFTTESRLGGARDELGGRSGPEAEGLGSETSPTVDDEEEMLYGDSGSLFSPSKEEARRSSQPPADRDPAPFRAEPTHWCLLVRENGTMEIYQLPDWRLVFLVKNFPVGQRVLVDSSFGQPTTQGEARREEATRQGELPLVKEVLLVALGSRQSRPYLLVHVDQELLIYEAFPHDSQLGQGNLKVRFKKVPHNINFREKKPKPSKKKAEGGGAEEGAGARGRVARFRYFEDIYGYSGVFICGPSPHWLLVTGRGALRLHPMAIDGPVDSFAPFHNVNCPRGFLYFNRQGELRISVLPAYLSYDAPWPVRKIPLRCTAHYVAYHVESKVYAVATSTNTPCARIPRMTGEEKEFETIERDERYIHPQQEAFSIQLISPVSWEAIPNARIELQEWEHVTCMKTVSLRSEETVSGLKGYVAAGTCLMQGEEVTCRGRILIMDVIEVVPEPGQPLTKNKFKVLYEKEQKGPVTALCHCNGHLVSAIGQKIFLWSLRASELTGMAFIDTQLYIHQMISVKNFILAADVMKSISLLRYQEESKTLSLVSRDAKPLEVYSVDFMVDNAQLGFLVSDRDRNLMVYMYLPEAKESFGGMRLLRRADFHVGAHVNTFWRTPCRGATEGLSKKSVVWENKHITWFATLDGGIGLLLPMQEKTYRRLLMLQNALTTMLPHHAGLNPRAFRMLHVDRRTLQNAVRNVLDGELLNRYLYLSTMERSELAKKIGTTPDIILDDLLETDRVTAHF
Sequence (Q9C0J8 1-425, chain 2 of 4): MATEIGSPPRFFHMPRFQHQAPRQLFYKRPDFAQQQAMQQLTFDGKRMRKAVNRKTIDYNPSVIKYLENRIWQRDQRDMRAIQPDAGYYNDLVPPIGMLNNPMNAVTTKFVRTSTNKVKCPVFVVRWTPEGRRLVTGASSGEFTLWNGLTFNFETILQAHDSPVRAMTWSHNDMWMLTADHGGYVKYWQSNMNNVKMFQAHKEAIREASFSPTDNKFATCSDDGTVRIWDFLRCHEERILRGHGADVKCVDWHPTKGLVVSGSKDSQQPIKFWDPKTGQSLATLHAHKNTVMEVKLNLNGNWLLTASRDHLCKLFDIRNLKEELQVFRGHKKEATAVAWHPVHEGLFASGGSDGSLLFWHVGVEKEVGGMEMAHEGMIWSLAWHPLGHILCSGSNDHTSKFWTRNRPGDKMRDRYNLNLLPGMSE
Sequence (O95639 whole entry, chain 3 of 4): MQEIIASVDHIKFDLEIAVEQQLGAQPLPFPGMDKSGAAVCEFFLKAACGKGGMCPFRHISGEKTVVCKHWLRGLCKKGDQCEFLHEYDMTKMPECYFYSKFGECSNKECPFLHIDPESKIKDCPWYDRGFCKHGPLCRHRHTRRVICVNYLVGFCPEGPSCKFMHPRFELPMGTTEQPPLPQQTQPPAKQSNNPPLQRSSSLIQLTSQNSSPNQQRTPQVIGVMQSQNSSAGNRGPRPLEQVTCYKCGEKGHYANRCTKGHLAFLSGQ
Sequence (Q6UN15 159-200, chain 4 of 4): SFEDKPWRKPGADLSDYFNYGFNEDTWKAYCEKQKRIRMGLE
Assay: fluorescence polarization
pKd: −log10 of the molar value.
PROPERTY_NAME: pKd

BINDER: AACCUCCAAUAAACAAC (ssRNA) [17-mer AAUAAA PAS]
REPORTED_MEASUREMENT: 9.72
